Biological target: Cytochrome P450 3A4 (Homo sapiens, UniProt P08684)
Sequence (P08684 whole entry): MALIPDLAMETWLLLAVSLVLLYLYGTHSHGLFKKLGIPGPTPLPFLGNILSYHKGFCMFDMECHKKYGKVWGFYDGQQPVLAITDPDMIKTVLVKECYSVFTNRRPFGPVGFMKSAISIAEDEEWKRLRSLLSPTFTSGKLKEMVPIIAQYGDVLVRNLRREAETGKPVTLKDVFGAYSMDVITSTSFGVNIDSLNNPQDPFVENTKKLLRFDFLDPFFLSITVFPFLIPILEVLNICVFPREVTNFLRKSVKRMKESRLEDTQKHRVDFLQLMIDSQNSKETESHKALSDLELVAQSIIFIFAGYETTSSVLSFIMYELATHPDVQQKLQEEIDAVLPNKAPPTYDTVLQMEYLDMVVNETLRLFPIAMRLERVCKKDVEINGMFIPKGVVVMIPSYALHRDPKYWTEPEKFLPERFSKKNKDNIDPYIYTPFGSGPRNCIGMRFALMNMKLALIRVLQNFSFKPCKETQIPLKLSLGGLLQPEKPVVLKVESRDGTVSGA
Test: Inhibition of CYP3A4 (unknown origin) in absence of cofactor
Assay type: ADME
pIC50: −log10 of the molar value.
REPORTED ENDPOINT: pIC50

# query: pIC50 of entry O=C(CCSc1nc2cc(Cl)ccc2o1)N1CCCC1 < 4.40

* * *

Experiment: Intrinsic clearance in mouse liver microsomes at 0.5 uM incubated for 45 mins in presence of NADPH by LC-MS/MS analysis
Assay type: ADME, Microsome
Conditions: 0.75 h
REPORTED ENDPOINT: log10 of CLH (log10 of the value in mL/min/g)
All values: base-10 log of CLH in mL/min/g.

# lookup: log10 of CLH of CS(=O)(=O)C1CCN(C(=O)CCSc2nc3cc(Cl)ccc3o2)C1 (racemic) 0.32

Query Clc1ccc2oc(SCCCN3CCCC3)nc2c1 next 1.02

Field entry: O=C(CCSc1nc2cc(Cl)ccc2s1)N1CCCC1 1.83

Try O=C(CCSc1nc2cc(Cl)ccc2o1)N1CCOCC1 next. 1.56

O=C(CCSc1nc2ccccc2o1)N1CCCC1 ? 2.21
